- System tested: Dual specificity tyrosine-phosphorylation-regulated kinase 2 (Homo sapiens);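 note: values are mean percent inhibition of DYRK2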
- Conditions used: at 0.1 µM
Readout type: inhibition (%)
I only need the number, in %, no unit after it.

# count of solved cases: 2
The compound listed as NS(=O)(=O)c1cccc(Nc2cc(-c3ccc(F)cc3)n[nH]2)c1 has a reported inhibition of 1.93

The compound listed as CS(=O)(=O)CCNCc1nc(-c2ccc3ncnc(Nc4ccc(OCc5cccc(C(F)(F)F)c5)cc4)c3c2)cs1 has a reported inhibition of 1.36

Continuing:
The compound listed as NS(=O)(=O)c1ccc(-c2cc3ccncc3cc2OCc2ccccc2)cc1 has a reported inhibition of 2.46

The compound listed as Cc1ccc(Nc2ccnc(Nc3cccc(C(N)=O)c3)n2)cc1O has a reported inhibition of 2.25

The compound listed as NS(=O)(=O)c1ccc(Nc2cc(-c3cccc(O)c3)n[nH]2)cc1 has a reported inhibition of 3.82

The compound listed as Cc1cc(O)cc(C)c1/C=C/c1cncc(C(=O)N(C)C)c1 has a reported inhibition of 2.94

The compound listed as NC(=O)c1cccc(Nc2nccc(Nc3cccc(F)c3)n2)c1 has a reported inhibition of 1.36

The compound listed as CN(C)C(=O)O[C@@H]1CN[C@@H](C#Cc2cc3ncnc(Nc4ccc(OCc5cccc(F)c5)c(Cl)c4)c3s2)C1 has a reported inhibition of -0.19

The compound listed as CCn1c(-c2nonc2N)nc2ccc(F)cc21 has a reported inhibition of 4.17

The compound listed as ON=C1CCc2cc(-c3nc(C4CCNCC4)[nH]c3-c3ccncc3)ccc21 has a reported inhibition of -0.01

The compound listed as Cc1nc(-c2ccccc2)n2nc(NCCCN3CCOCC3)ncc12 has a reported inhibition of 1.55

Where these numbers come from: ChEMBL document CHEMBL1961873
